Biological target: NK2 (Homo sapiens, UniProt P21452)
Sequence (P21452 1-398): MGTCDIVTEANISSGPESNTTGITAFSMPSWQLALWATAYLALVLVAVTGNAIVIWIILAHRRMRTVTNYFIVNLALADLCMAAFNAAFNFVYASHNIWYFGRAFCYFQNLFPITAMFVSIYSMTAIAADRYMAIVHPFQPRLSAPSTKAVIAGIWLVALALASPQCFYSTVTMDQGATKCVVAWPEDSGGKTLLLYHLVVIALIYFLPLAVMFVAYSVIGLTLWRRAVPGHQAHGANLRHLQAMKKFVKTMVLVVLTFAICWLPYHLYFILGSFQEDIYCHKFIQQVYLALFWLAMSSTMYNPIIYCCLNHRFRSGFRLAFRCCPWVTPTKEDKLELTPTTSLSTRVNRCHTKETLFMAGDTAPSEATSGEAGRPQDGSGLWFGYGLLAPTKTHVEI
Test: Signal transduction (ST), intracellular Ca++ (FLIPR), NK2
Assay type: cell-based
Settings: read-out: pIC50 NK2 (converted)
EXPERIMENTAL ENDPOINT: IC50 (nM)

I: O=C(c1cccs1)N1CCC(N2CCN(C3CCN(C(=O)c4cc(C(F)(F)F)cc(C(F)(F)F)c4)C(Cc4ccc(F)c(F)c4)C3)CC2)C1 (single isomer, unassigned) [Compound 232]
II: O=C(C1CC1)N1CC[C@@H](N2CCN([C@H]3CCN(C(=O)c4cc(C(F)(F)F)cc(C(F)(F)F)c4)[C@H](Cc4ccc(Cl)c(Cl)c4)C3)CC2)C1 [Compound 263]
# return whichever of I and II has the smaller IC50 Please identify the chosen entry by its label. II

1: Cn1cccc(C(=O)N2CCC(N3CCN(C4CCN(C(=O)c5cc(C(F)(F)F)cc(C(F)(F)F)c5)C(Cc5ccc(F)c(F)c5)C4)CC3)C2)c1=O (single isomer, unassigned) [Compound 368]
2: O=C(c1ccccc1Cl)N1CCC(N2CCN(C3CCN(C(=O)c4cc(C(F)(F)F)cc(C(F)(F)F)c4)C(Cc4ccccc4)C3)CC2)C1 (single isomer, unassigned) [Compound 159]
3: O=C(c1ccccc1Cl)N1CCC(N2CCN(C3CCN(C(=O)c4cc(C(F)(F)F)cc(C(F)(F)F)c4)C(Cc4ccc(F)c(F)c4)C3)CC2)C1 (stereo not shown) [Compound 255]
Endpoint returns the given compounds ordered by ascending IC50. Hello, could you send the labels back in the order asked? Thank you. 3, 1, 2
